Below, each entry is listed with its recorded pIC50.
Target: Des1 (h) (Homo sapiens)
Construct: endogenous in cells; host or cells: parental Jurkat cells
Sequence (O15121 1-323): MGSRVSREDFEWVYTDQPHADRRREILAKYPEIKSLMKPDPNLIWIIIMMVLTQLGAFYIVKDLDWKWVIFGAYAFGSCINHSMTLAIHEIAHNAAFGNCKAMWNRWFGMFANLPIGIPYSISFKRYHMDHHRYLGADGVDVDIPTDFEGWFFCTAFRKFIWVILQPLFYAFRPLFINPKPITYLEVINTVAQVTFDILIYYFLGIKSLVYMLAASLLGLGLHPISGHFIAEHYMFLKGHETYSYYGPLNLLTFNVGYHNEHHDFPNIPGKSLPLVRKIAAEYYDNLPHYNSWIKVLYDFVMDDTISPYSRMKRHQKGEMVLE
Test: Measurement of Dihydroceramide Desaturase-1 (Des-1) activity in intact Jurkat cells labeled with DhCer-C6-NBD (HPLC)
Type: cell-based
Conditions: intact Jurkat cells; given as concentration range, or <X / >X if measured at one concentration X only; read-out: Des1 (h) Jurkat IC50
pIC50: −log10 of the molar value.
assay metric: pIC50

molecule: O=C(NC[C@@H](O)CO)c1ccc(Nc2ncc(-c3ccc(C(F)(F)F)cc3)o2)nn1 [Example 41]
test result: > 7.00
--
molecule: Cc1cc(Nc2ncc(-c3ccc(C(F)(F)F)cc3)o2)cc(=O)n1O [Example 27]
test result: 9.00 to 10.00
--
molecule: N/C(=N\O)c1cnc(Nc2ccn(-c3ccc(C(F)(F)F)cc3)n2)cn1 [Compound 111]
test result: > 6.00
--
molecule: N/C(=N\O)c1ccc(Nc2ncc(-c3ccc(OC(F)(F)F)cn3)o2)cn1 [Compound 99]
test result: < 6.00
--
molecule: N/C(=N\O)c1ccc(Nc2ccn(-c3ccc(C(F)(F)F)cc3)n2)cn1 [Example 74]
test result: > 6.00
--
molecule: O=C(NO)c1ccc(Nc2nc(-c3ccc(C(F)(F)F)cc3)co2)nn1 [Example 13]
test result: 5.00 to 6.00
--
molecule: N/C(=N\O)c1cnc(Nc2nc(-c3ccc(C(F)(F)F)cn3)no2)cn1 [Example 85]
test result: < 6.00
--
molecule: N=C(NO)c1ccc(Nc2nnc(-c3ccc(C(F)(F)F)cc3)o2)cn1 [Example 5]
test result: 6.00 to 7.00
--
molecule: N=C(NO)c1ccc(Nc2ncc(-c3ccc(F)cn3)o2)nn1 [Example 49]
test result: > 7.00
--
molecule: N/C(=N\O)c1cnc(Nc2ncn(-c3ccc(C(F)(F)F)cn3)n2)cn1 [Compound 108]
test result: > 6.00
--
molecule: CN(O)C(=O)c1ccc(Nc2ncc(-c3ccc(C(F)(F)F)cc3)o2)cn1 [Example 20]
test result: > 7.00

###

Biological target: Des1 (h) (Homo sapiens, UniProt O15121)
Construct: endogenous in cells; host or cells: parental Jurkat cells
Experiment: Measurement of Dihydroceramide Desaturase-1 (Des-1) activity in intact Jurkat cells labeled with DhCer-C6-NBD (HPLC)
Assay type: cell-based
Settings: Jurkat cells; 1 μM
Procedure: Measurement of Dihydroceramide Desaturase-1 (Des-1) Activity Compounds were assessed for Des-1 inhibitory activity. […] Extracted samples (50 ul) were analysed on a Waters HPLC coupled to a fluorescence detector using a 30 cm C18 reverse-phase column eluted with 1 ml/min 20% H2O and 80% acetonitrile, both with a 0.1% of trifluoroacetic acid. NBD-labelled substrate and product were quantitated with an excitation and emission wavelengths of 465 nm and 530 nm, respectively.
Each entry gets no (0) if its inhibition at 1 µM stays under 30%, and yes (1) if its inhibition at 1 µM is 30% or above.

molecule: N/C(=N\O)c1ccc(Nc2nc(-c3ccc(Cl)cn3)no2)cn1
qualitative label: no (0)

molecule: N/C(=N\O)c1cnc(Nc2ncc(-c3ccc(C(F)(F)F)cc3)o2)nc1
qualitative label: no (0)

molecule: N=C(NCC(O)CO)c1ccc(Nc2ncc(-c3ccc(C(F)(F)F)cc3)o2)cn1 (racemic)
qualitative label: yes (1)

molecule: N/C(=N/O)c1ccc(Nc2ncc(-c3ccc(C4CC4)cn3)o2)cn1
qualitative label: yes (1)

molecule: Cn1nc(-c2ccc(C(F)(F)F)cc2)cc1Nc1ccc(/C(N)=N\O)nc1
qualitative label: yes (1)

molecule: N/C(=N/O)c1ccc(Nc2nnc(-c3ccc(Cl)cn3)o2)cn1
qualitative label: no (0)

molecule: N/C(=N/O)c1ccc(Nc2ncc(-c3ccc(N4CC(F)(F)C4)cc3)o2)cn1
qualitative label: no (0)

molecule: Cn1nc(Nc2cnc(/C(N)=N/O)cn2)cc1-c1ccc(C(F)(F)F)cn1
qualitative label: yes (1)

molecule: N/C(=N\O)c1ccc(Nc2nc(-c3ccc(C(F)(F)F)cn3)no2)cn1
qualitative label: yes (1)

molecule: N/C(=N/O)c1ccc(Nc2ncc(-c3ncc(C(F)(F)F)cn3)o2)cn1
qualitative label: no (0)

molecule: N/C(=N\O)c1ccc(Nc2ncc(-c3ccc(C4CC4)cc3)o2)cn1
qualitative label: no (0)

molecule: N/C(=N/O)c1ccc(Nc2ncc(-c3cnc(C(F)(F)F)cn3)o2)cn1
qualitative label: yes (1)

molecule: O=S(=O)(NCC(O)CO)c1ccc(Nc2ncc(-c3ccc(C(F)(F)F)cc3)o2)cn1 (racemic)
qualitative label: yes (1)

molecule: N/C(=N\O)c1ccc(Nc2ncc(-c3ccc(C(F)(F)F)nn3)o2)cn1
qualitative label: yes (1)

molecule: Cc1cc(Nc2ncc(-c3ccc(C(F)(F)F)cc3)o2)cnc1C(=O)N(C)O
qualitative label: yes (1)

molecule: N/C(=N\O)c1ccc(Nc2nc(-c3ccc(OC(F)(F)F)cn3)no2)cn1
qualitative label: no (0)

molecule: CN(O)S(=O)(=O)c1ccc(Nc2ncc(-c3ccc(C(F)(F)F)cc3)o2)cn1
qualitative label: yes (1)

molecule: N/C(=N/O)c1ccc(Nc2ncc(-c3ccc(F)cn3)o2)cn1
qualitative label: yes (1)

molecule: CC(C)N(O)C(=O)c1ccc(Nc2ncc(-c3ccc(C(F)(F)F)cc3)o2)cn1
qualitative label: no (0)

molecule: N/C(=N\O)c1ncc(Nc2ncc(-c3ccc(C(F)(F)F)cn3)o2)cn1
qualitative label: yes (1)
